Reported WT/yield of O-glycoside(%) values for a set of compounds
# testTarget: AbCGT (Aloe vera, UniProt A0A7G9P699)
# Sequence (A0A7G9P699 entry or part of it): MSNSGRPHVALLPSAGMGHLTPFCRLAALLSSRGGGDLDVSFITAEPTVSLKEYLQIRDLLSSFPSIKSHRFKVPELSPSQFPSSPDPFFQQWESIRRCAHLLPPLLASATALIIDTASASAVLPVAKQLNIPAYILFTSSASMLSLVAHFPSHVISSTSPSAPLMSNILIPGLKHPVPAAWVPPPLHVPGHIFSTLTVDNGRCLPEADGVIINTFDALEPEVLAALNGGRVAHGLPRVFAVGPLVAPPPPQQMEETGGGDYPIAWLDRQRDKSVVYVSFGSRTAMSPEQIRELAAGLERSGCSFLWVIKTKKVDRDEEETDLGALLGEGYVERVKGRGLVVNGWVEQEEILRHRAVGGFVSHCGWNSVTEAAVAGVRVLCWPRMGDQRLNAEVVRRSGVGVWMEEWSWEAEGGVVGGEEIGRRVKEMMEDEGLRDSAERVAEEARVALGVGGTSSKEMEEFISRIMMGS
# measurementProtocol: Glycosyltransferase activity assay, purified AbCGT (wild type) with aglycon acceptors and UDP-Glc
# Assay type: biochemical, Aloe barbadensis
# cond: reaction-1
measure: WT/yield of O-glycoside(%)

1. O=C1CC(O)(c2ccc(O)cc2)Oc2cc(O)cc(O)c21 (stereo not shown) [Compound 23, 2-hydroxynaringenin] ... 18.7
2. CC(=O)c1cc(O)cc(O)c1 [Compound 4, 3,5-dihydroxyacetophenone] ... 38.8
3. COc1cc(O)c(C(C)=O)c(OC)c1 ... 1.5
4. CC(=O)c1c(O)cccc1O ... 73.6
5. CC(=O)c1ccccc1O ... 32.8
6. COc1cc(O)c(C(C)=O)c(O)c1 ... 21.2
7. CC(=O)c1c(O)cc(C)cc1O ... 77.6
8. Oc1cc(O)cc(OCCCCCCc2ccccc2)c1 ... 28.2
9. CC(=O)c1ccc(O)cc1 ... 70.4
10. CC(=O)c1cccc(O)c1 ... 70.1
